Quick list: logP per entry.
Assay: Partition coefficient (logP)
Format: physicochemical
Conditions: octanol/water
Form: value (number only, do not type unit).

- COMPOUND: "Cl.O=C1C2C3C=CC(C4C=CC43)C2C(=O)N1CCCCN1CCN(c2ncccn2)CC1 (configuration not stated)"
  QUANTITY MEASURED: "logP"
  VALUE OBSERVED: 1.79

In one line, give reported logP of the entry Cl.O=C1C2C3C=CC(C4CCC34)C2C(=O)N1CCCCN1CCN(c2ncccn2)CC1 (configuration not stated) .
2.02

In one line, give reported logP of the entry Cl.O=C1C2C3C=CC(CCC3)C2C(=O)N1CCCCN1CCN(c2ncccn2)CC1 (configuration not stated) .
1.94

In one line, give reported logP of the entry Cl.O=C1C2C3CCC(C4CCC43)C2C(=O)N1CCCCN1CCN(c2ncccn2)CC1 (configuration not stated) .
2.09

In one line, give reported logP of the entry Cl.O=C1C2C3C=CC(C4CC34)C2C(=O)N1CCCCN1CCN(c2ncccn2)CC1 (configuration not stated) .
1.73

In one line, give reported logP of the entry O=C1C2C3C=CC(C3)C2C(=O)N1CCCCN1CCN(c2ncccn2)CC1 (configuration not stated) .
1.36

In one line, give reported logP of the entry Cl.O=C1C2C3CCC(C4CC43)C2C(=O)N1CCCCN1CCN(c2ncccn2)CC1 (configuration not stated) .
1.83

The measurements presented in this section are drawn from ChEMBL document CHEMBL1124154.
